# TEST TARGET: Recombinant human soluble guanylate cyclase (sGC) (Homo sapiens, UniProt Q02153)
# Construct: histidine tag (C)
# Sequence (Q02108 whole entry partner): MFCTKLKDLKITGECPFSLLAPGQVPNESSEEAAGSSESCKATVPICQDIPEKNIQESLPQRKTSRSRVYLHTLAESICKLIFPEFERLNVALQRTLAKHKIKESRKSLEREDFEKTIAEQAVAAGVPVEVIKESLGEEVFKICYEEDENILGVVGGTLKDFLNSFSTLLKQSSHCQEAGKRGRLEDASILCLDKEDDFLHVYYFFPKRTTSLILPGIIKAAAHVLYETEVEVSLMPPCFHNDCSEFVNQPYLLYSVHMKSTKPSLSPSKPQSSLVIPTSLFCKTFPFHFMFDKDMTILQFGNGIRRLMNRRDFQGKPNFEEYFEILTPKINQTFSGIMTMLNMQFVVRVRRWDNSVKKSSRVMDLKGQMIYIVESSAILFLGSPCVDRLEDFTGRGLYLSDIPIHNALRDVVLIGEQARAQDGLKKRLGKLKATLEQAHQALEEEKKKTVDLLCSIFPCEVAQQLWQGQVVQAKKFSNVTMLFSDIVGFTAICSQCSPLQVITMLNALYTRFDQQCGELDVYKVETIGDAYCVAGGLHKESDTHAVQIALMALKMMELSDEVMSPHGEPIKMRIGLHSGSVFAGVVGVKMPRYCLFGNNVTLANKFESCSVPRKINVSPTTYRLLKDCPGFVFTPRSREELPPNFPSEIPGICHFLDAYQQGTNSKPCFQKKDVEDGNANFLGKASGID
# Sequence (Q02153 whole entry): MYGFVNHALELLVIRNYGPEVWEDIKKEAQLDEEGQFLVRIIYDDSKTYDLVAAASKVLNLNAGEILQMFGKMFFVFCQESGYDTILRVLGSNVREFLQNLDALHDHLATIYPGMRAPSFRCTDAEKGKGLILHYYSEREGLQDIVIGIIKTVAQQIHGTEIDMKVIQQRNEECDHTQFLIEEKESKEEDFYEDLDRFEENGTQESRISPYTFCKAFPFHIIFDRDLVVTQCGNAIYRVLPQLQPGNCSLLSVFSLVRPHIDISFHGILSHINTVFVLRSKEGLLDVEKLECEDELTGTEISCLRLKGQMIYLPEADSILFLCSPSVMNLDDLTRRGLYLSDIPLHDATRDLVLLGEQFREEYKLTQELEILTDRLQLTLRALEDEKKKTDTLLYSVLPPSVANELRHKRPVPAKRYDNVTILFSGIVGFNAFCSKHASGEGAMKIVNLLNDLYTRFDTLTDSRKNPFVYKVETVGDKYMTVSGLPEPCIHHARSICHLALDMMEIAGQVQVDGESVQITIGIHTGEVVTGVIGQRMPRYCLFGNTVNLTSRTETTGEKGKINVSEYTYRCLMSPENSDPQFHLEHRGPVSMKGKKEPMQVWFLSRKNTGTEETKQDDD
# PROTOCOL DETAILS: Molecular assay: activation of heme-free sGC, cGMP detection (CisBio kit)
# CONDITION NOTES: 300 pM heme-free sGC, 37° C., 60 minutes, cGMP formation
PROPERTY: EC50
# output: number + unit

Look over these answered cases.
CCn1c(C(=O)O)cnc1-c1cccc(-c2cccc(C)c2OCc2ccc3c(c2)CCN(C2CCOCC2)C3)n1 [Compound 63]
14 nM
CCn1cc(CN2CCc3cc(COc4c(C)cccc4-c4cccc(-c5ncc(C(=O)O)n5C)n4)ccc3C2)cn1 [Compound 71]
159 nM
Cc1ccc(OCc2ccc3c(c2)CCN(C2CCOCC2)C3)c(-c2cccc(-c3c(C)c(C(=O)O)nn3C)n2)c1 [Compound 79]
1200 nM

EC50 for Cc1ccc(OCc2ccc3c(c2)CCN(C2CCCC2)C3)c(-c2cccc(-n3ncc(C(=O)O)c3C(F)(F)F)n2)c1 [Compound 17] is 13 nM

EC50 for Cc1ccc(OCc2ccc3c(c2C)CCN(C)C3)c(-c2cccc(-c3ncc(C(=O)O)n3C)n2)c1 [Compound 48] is 640 nM

EC50 for Cc1cccc(-c2cccc(-c3ncc(C(=O)O)n3C)n2)c1OCc1ccc2c(c1)CCN(C1CCCOC1)C2 (stereo not shown) [Compound 75] is 175 nM

EC50 for Cc1ccc(OCc2ccc3c(c2)CCN(C)C3=O)c(-c2cccc(-n3ncc(C(=O)O)c3C(F)(F)F)n2)c1 [Compound 8] is 280 nM

###

# PROTOCOL DETAILS: Assessment of solubility (HT solubility, pION, UV)
# Assay type: physicochemical
# CONDITION NOTES: pH 7.4 buffer, incubated 16-19 hours, 1.0% DMSO, 100 uM
# Experimental: Solubility is measured by the following method. DMSO stock samples at 10 mM conc are prepared. […] The samples are pierced and 100 ul of thawed samples are transferred into the PCR plate for analysis. […] 75 ul of buffer (pH 7.4 or pH 4.5) is added to UV plate followed by addition of […] of N-propanol. The solution is mixed and the blank spectrum is read using spectrophotometer. […] The spectra collected for blank, reference and sample from 250-498 nm is analyzed using pION software. […]
Parameter: Sol pH 7.4. Scope: all listed entries.

Cc1ccc(OCc2ccc3c(c2C)CCN(C2CCOC2)C3)c(-c2cccc(-c3csc(C(=O)O)c3C)n2)c1 (stereo not shown) [Compound 53]
51.4 μg/mL
Cc1ccc(OCc2ccc3c(c2)CCN(C2CCC(C(F)(F)F)CC2)C3)c(-c2cccc(-n3ncc(C(=O)O)c3C(F)(F)F)n2)c1 (stereo not shown) [Compound 33]
4.6 μg/mL
Cc1ccc(OCc2ccc3c(c2)CCN(CC2CCOC2)C3)c(-c2cccc(-c3csc(C(=O)O)c3C)n2)c1 (stereo not shown) [Compound 51]
35.9 μg/mL
Cc1cccc(-c2cccc(-c3c(C)c(C(=O)O)nn3C3CC3)n2)c1OCc1ccc2c(c1)CCN(C1CCC(F)(F)CC1)C2 [Compound 90]
50.2 μg/mL
Cc1cccc(-c2cccc(-c3c(C)c(C(=O)O)nn3C(C)C)n2)c1OCc1ccc2c(c1)CCN(C1CCOCC1)C2 [Compound 83]
>69 μg/mL
Cc1ccc(OCc2ccc3c(c2)CCN(C)C3=O)c(-c2cccc(-n3ncc(C(=O)O)c3C(F)(F)F)n2)c1 [Compound 8]
>53 μg/mL
CC(=O)N1CCc2cc(COc3ccc(C)cc3-c3cccc(-n4ncc(C(=O)O)c4C(F)(F)F)n3)ccc2C1 [Compound 6]
>54 μg/mL
Cc1ccc(OCc2ccc3c(c2)CCN(S(=O)(=O)CC(=O)O)C3)c(-c2cccc(-n3ncc(C(=O)O)c3C(F)(F)F)n2)c1 [Compound 1]
>62 μg/mL
Cc1ncc(CN2CCc3cc(COc4c(C)cccc4-c4cccc(-c5ncc(C(=O)O)n5C)n4)ccc3C2)s1 [Compound 70]
>66 μg/mL
Cc1ccc(OCc2ccc3c(c2)CCN(C2CCOCC2)C3)c(-c2cccc(-c3ncc(C(=O)O)n3C)n2)c1 [Compound 66]
>53 μg/mL

Sol pH 7.4 for Cc1cccc(-c2cccc(-c3ncc(C(=O)O)n3C)n2)c1OCc1ccc2c(c1)CCN(C1CCCOC1)C2 (stereo not shown) [Compound 75] is >65 μg/mL

Sol pH 7.4 for Cc1ccc(OCc2ccc3c(c2)CCN(S(=O)(=O)CCCC(=O)O)C3)c(-c2cccc(-n3ncc(C(=O)O)c3C(F)(F)F)n2)c1 [Compound 3] is >65 μg/mL

The measured values listed here are drawn from patent US8569339B2.
